- Measured Target: SdiA (Salmonella enterica subsp. enterica serovar Typhimurium, UniProt O66040)
- Sequence (O66040 entry or part of it): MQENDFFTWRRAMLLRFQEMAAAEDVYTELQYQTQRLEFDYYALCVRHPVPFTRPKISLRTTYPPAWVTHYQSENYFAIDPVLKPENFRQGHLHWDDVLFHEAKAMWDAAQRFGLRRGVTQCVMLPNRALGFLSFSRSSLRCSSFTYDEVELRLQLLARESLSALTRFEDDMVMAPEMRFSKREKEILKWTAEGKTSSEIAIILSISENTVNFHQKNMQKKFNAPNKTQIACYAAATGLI
- Measurement Description: S. Typhimurium-pJNS25 SdiA reporter, competitive antagonism against 10 nM L-OOHL
- Format: cell-based
- Measurement Parameters: maximal inhibition; 100% minus lowest % activity in presence of 10 nM L-OOHL (2); read-out: inhibition (%)
Emax reference

Reference set, count: 10
# Compound, Emax
rows = [
    ("CCCCCCCCCCCCOc1ccc(C(=O)N[C@H]2CCOC2=O)cc1", "63%"),
    ("O=C(Cc1ccc(-c2ccccc2)cc1)N[C@H]1CCSC1=O", "51%"),
    ("CCCCCCC(CCCC)C(=O)N[C@H]1CCOC1=O (some centres unmarked)", "32%"),
    ("CCOC(=O)CNC(=O)Cc1ccc(OC)cc1", "42%"),
    ("CCCCCCCCCCCOc1ccc(C(=O)N[C@H]2CCOC2=O)cc1", "> 100%"),
    ("CCCCCCCCCCCCCCCC(=O)N[C@H]1CCOC1=O", "> 50%"),
    ("CCOC(=O)CNC(=O)Cc1cccc(I)c1", "87%"),
    ("CSc1ccc(CCC(=O)N[C@H]2CCOC2=O)cc1", "30%"),
    ("O=C(Nc1ccccc1NC(=O)c1cccc(Cl)c1)c1cccc(Cl)c1 [compound 20, reference compound]", "53%"),
    ("O=C(Cc1ccc(Br)cc1)N[C@@H]1CCOC1=O", "50%"),
]

Now, please, on to the next compound.
Field request: Emax | item: `CSc1ccc(CC(=O)N[C@H]2CCOC2=O)cc1`
49%

====

- Measured Target: SdiA (Salmonella enterica subsp. enterica serovar Typhimurium, UniProt O66040)
- Measurement Description: S. Typhimurium-pJNS25 SdiA reporter, competitive antagonism against 10 nM L-OOHL
- Type: cell-based
- Measurement Parameters: 100 μM compound; average ± STD, change in activity from 10 nM 2 (OOHL)
Measured Antagonism 100 μM Inhibition (%) values are reported for all entries that follow.
All answers are understood in %, so give the number only.

Answered cases to consult:
# Compound, Antagonism 100 μM Inhibition (%)
rows = [
    ("CCCCCCC(=O)N[C@H]1CCSC1=O", -2),
    ("O=C(Cc1ccc(Br)cc1)N[C@H]1CCOC1=O [compound 7, reference compound]", 21),
    ("COc1cccc(CC(=O)N[C@H]2CCOC2=O)c1 [E2]", -8),
    ("O=C(CCCc1c[nH]c2ccccc12)N[C@@H]1CCOC1=O", -8),
    ("[N-]=[N+]=Nc1ccc(CC(=O)N[C@H]2CCOC2=O)cc1", 9),
    ("CCCOc1ccc(C(=O)N[C@H]2CCOC2=O)cc1", 11),
    ("CCCCCCCCCC(=O)CC(=O)NC1CCCCC1=O (centres unmarked) [compound 15, reference compound]", 13),
    ("O=C(N[C@H]1CCOC1=O)c1cnn(-c2ccccc2)c1C(F)(F)F", 9),
]

// query Antagonism 100 μM Inhibition (%) value for entry `CCCCCCCCCCCCCC(=O)CC(=O)N[C@H]1CCOC1=O`
-9

Given the compound `O=C(N[C@H]1CCOC1=O)C1CCCC1` , what is its reported Antagonism 100 μM Inhibition (%)?
-8

Could you tell me which Antagonism 100 μM Inhibition (%) is on file for `Cc1ccc(C(=O)CCC(=O)N[C@H]2CCOC2=O)cc1` ?
3

Need Antagonism 100 μM Inhibition (%) of `O=C(Cc1cccc([N+](=O)[O-])c1)Nc1ccccc1` , thanks.
-2

I would be grateful if you could share the reported Antagonism 100 μM Inhibition (%) for `O=C(N[C@H]1CCOC1=O)c1ccc(Br)cc1` .
-14

Endpoint output: Antagonism 100 μM Inhibition (%) of `CCCCCCCCCC(=O)N[C@H]1CCOC1=O` . Value?
18

Requested read-out: Antagonism 100 μM Inhibition (%). Entry: `O=C(Cc1ccccc1I)N[C@H]1CCOC1=O`
-24

Name the reported Antagonism 100 μM Inhibition (%) value associated with the compound CCCC(=O)CC(=O)N[C@H]1CCOC1=O [compound 3, reference compound]
20

What measured Antagonism 100 μM Inhibition (%) goes with `O=C(Cc1ccc2ccccc2c1)N[C@H]1CCOC1=O` ?
0

Would you kindly share the measured Antagonism 100 μM Inhibition (%) for `O=C(Cc1ccc(SC(F)(F)F)cc1)N[C@H]1CCOC1=O` ?
31

# get_value(readout='Antagonism 100 μM Inhibition (%)', item= `O=C(CCc1ccc(I)cc1)N[C@H]1CCOC1=O` )
24

====

- Measured Target: SdiA (Salmonella enterica subsp. enterica serovar Typhimurium, UniProt O66040)
- Measurement Description: Competition dose–response of OOHL (2) against antagonists in the S. Typhimurium SdiA reporter
- Type: cell-based
- Measurement Parameters: antagonist at 0.1 μM
A collection of compounds and their measured EC50
Express it in nM; write the number only.

Use the examples below as a reference point.
# Compound, EC50 / nM
rows = [
    ("CCOC(=O)CNC(=O)Cc1cccc(I)c1", 1.77),
    ("CCCCCCCCCCCOc1ccc(C(=O)N[C@H]2CCOC2=O)cc1", 1.57),
]

EC50 lookup needed for O=C(CCCCCCCCCN=C=S)CC(=O)N[C@H]1CCOC1=O [compound 11, reference compound] , thanks.
72.3

====

- Measured Target: UniProt O66040
- Measurement Description: S. Typhimurium-pJNS25 SdiA reporter, competitive antagonism against 10 nM L-OOHL
- Type: cell-based
- Measurement Parameters: 1 μM compound; average ± STD, change in activity from 10 nM 2 (OOHL); read-out: Antagonism 1 μM Inhibition (%)
Quantity Measured: inhibition at 1 µM (%)
Report the value in % with no unit label.

# Compound, Measured Target, inhibition at 1 µM [%]
rows = [
    ("CCCCCCCC(=O)OCC(O)CO (racemic) [compound 23, 1-octanoyl-rac-glycerol, reference compound]", "UniProt O66040", 8),
    ("O=C(CC1CCCCC1)N[C@H]1CCOC1=O", "UniProt O66040", 7),
]

Would you kindly share the measured inhibition at 1 µM for `CCCCCCCCCCCOc1ccc(C(=O)N[C@H]2CCOC2=O)cc1` ?
18

What value of inhibition at 1 µM has been reported for the following compound? `CSc1ccc(CC(=O)N[C@H]2CCOC2=O)cc1`
25

For the compound shown here, `CSc1ccc(CCC(=O)N[C@H]2CCOC2=O)cc1` , give the reported inhibition at 1 µM.
21

Param item = `O=C(COc1ccc(I)cc1)N[C@H]1CCSC1=O` ; retrieve measured inhibition at 1 µM.
-4

====

- Measured Target: SdiA (Salmonella enterica subsp. enterica serovar Typhimurium, UniProt O66040)
- Measurement Description: S. Typhimurium-pJNS25 SdiA reporter, competitive antagonism against 10 nM L-OOHL
- Type: cell-based
- Measurement Parameters: 100 μM compound; average ± STD, change in activity from 10 nM 2 (OOHL)
Below: a set of entries, each annotated with reported Antagonism 100 μM Inhibition (%).

Example cases with answers are listed next.
# Compound, Value Reported
records = [
    ("O=C(N[C@H]1CCOC1=O)c1ccccc1Br [Q1]", "-3 ± 18%"),
    ("O=C(CCc1ccccc1)N[C@H]1CCOC1=O [B9]", "18 ± 14%"),
    ("O=C(N[C@H]1CCOC1=O)c1ccc(Cl)cc1 [Q4]", "-25 ± 15%"),
]

// lookup Antagonism 100 μM Inhibition (%) for CC(C)(C)OC(=O)Nc1ccc(CC(=O)N[C@H]2CCOC2=O)cc1 [C22]
6 ± 6%

====

Listed compounds paired with reported pEC50
- Measured Target: SdiA (Salmonella enterica subsp. enterica serovar Typhimurium)
- Measurement Description: S. Typhimurium-pJNS25 SdiA reporter, agonism (luminescence)
- Type: cell-based
- Measurement Parameters: agonism dose–response; read-out: EC50
Please report pEC50 as the negative decimal logarithm of the molar concentration, giving only the number.

// solved cases for pEC50 follow
# Compound, pEC50
measured = [
    ("COc1ccc(CC(=O)N[C@H]2CCOC2=O)cc1", 6.60),
    ("Cc1cccc(OCC(=O)N[C@H]2CCOC2=O)c1", 7.36),
    ("O=C(CC1CCCCC1)N[C@H]1CCOC1=O", 6.97),
    ("CCCCCCCC(=O)N[C@H]1CCOC1=O", 7.74),
    ("O=C(Cc1cccc([N+](=O)[O-])c1)N[C@H]1CCOC1=O", 7.55),
    ("CCCCCC(=O)N[C@H]1CCOC1=O", 7.68),
    ("O=C(Cc1cccc(Cl)c1)N[C@H]1CCOC1=O", 7.28),
    ("CCCCCC(=O)CC(=O)N[C@H]1CCSC1=O", 9.15),
    ("CCCC(=O)N[C@H]1CCOC1=O [A1, reference compound]", 6.24),
    ("CCCCCCCC(=O)N[C@H]1CCSC1=O", 8.64),
]

Dear colleague, I am looking for the recorded pEC50 of the following compound: CCCCCC(=O)CC(=O)N[C@H]1CCOC1=O [compound 2, reference compound]
8.99

Quick check: pEC50 of `O=C(Cc1cccc(Br)c1)N[C@H]1CCOC1=O` ?
7.72

For the compound shown here, `CCCCCCCC(=O)CC(=O)N[C@H]1CCOC1=O` , give the reported pEC50.
7.58

What pEC50 value was documented for this compound, `O=C(COc1ccc(I)cc1)N[C@H]1CCOC1=O` ?
7.98

Please report the recorded pEC50 for `O=C(CCC1CCCCC1)N[C@H]1CCOC1=O` .
7.30

Which pEC50 reading was recorded for the compound `O=C(CC1CCCC1)N[C@H]1CCOC1=O` ?
7.26

# query: pEC50 of entry `Cc1ccc(OCC(=O)N[C@H]2CCOC2=O)cc1`
7.48

Could you share which pEC50 value was measured for `CCCC(=O)N[C@H]1CCSC1=O` ?
7.20

What does the data say about its pEC50? Entry: Cc1cccc(CC(=O)N[C@H]2CCOC2=O)c1 [E1]
7.18

If you can, please state the reported pEC50 value of `O=C(Cc1cccc(I)c1)N[C@H]1CCOC1=O` .
7.69

pEC50 for `N#Cc1cccc(CC(=O)N[C@H]2CCOC2=O)c1` ?
7.21

Field request: pEC50 | item: `O=C(COc1ccc(I)cc1)N[C@H]1CCSC1=O`
8.22

Returns the measured pEC50 for the input compound. Input: `O=C(Cc1ccccc1Br)N[C@H]1CCOC1=O`
7.20

What pEC50 value was documented for this compound, `O=C(Cc1cccc([N+](=O)[O-])c1)N[C@H]1CCSC1=O` ?
8.61

Which pEC50 is reported for this compound? `CSc1cccc(CC(=O)N[C@H]2CCOC2=O)c1`
7.59

Item `COc1ccc(CC(=O)N[C@H]2CCSC2=O)cc1` has what recorded pEC50?
7.41
